All values here come from paper PMC6253949.

# Target desc: Human DNA polymerase ε (Homo sapiens, UniProt Q07864)
# Construct: Human pols δ and ε were purified by the nuclear fractionation of human peripheral blood cancer cells (Molt-4); endogenous in cells
# Sequence (Q07864 whole entry): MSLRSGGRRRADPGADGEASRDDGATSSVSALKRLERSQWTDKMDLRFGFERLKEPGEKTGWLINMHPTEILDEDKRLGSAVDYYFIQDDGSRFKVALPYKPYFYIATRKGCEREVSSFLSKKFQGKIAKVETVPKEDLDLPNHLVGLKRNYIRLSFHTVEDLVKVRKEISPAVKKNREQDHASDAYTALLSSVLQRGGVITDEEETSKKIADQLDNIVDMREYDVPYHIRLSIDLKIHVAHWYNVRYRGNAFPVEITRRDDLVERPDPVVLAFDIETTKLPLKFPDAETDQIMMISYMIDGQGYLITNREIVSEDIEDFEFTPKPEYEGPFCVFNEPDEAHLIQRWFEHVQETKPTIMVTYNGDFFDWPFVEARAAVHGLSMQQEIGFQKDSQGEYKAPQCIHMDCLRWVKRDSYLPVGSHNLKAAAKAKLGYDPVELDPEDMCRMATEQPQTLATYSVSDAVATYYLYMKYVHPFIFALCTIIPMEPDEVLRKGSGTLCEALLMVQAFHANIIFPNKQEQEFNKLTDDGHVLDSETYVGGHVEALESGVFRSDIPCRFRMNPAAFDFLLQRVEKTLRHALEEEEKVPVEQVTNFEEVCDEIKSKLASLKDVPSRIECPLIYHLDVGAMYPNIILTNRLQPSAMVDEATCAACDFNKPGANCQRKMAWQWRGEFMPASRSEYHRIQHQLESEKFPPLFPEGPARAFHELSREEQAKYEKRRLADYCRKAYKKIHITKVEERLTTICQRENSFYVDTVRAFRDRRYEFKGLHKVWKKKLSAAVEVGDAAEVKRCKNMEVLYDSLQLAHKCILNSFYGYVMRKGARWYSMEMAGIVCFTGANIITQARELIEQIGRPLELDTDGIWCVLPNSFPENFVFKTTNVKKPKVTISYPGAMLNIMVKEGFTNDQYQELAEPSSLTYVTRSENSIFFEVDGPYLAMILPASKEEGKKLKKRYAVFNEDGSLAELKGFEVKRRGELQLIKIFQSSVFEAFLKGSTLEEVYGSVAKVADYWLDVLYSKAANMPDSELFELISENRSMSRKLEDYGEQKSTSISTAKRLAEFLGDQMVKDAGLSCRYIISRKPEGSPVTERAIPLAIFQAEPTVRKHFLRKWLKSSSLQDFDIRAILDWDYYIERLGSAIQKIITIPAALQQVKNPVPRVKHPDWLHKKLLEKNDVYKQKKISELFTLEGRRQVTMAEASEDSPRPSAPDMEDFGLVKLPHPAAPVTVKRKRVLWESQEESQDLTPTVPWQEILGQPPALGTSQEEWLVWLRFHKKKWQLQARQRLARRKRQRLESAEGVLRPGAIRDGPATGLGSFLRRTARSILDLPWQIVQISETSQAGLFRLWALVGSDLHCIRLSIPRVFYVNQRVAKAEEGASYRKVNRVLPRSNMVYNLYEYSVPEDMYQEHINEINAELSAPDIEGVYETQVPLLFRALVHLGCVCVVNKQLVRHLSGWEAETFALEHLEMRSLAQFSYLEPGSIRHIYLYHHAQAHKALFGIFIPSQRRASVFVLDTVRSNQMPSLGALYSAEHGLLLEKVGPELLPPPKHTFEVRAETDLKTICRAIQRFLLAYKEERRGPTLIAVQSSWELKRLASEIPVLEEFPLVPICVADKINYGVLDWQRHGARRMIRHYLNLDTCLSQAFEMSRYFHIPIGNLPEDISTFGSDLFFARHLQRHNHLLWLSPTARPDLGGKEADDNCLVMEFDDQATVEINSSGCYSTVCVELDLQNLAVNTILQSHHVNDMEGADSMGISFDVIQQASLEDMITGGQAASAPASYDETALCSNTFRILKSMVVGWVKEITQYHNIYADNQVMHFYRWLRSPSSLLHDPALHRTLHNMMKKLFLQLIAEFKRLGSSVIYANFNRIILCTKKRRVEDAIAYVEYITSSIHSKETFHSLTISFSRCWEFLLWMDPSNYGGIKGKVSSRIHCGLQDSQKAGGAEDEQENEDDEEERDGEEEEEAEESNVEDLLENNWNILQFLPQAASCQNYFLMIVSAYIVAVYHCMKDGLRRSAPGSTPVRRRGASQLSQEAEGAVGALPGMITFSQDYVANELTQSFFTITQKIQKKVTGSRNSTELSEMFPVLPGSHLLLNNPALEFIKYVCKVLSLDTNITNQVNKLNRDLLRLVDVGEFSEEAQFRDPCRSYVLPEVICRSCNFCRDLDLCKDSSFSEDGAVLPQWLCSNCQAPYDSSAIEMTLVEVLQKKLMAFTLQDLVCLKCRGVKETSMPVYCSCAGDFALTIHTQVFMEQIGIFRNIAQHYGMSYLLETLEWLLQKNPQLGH
# Protocol: DNA polymerase assay, human pol ε
Assay readout: pIC50
// scale note: pIC50 = -log10(conc_M); give the bare number

# input compound: CC1=CC[C@H]2C(C)(C)CCC[C@]2(C)[C@H]1CCCCCCCCCCCCCCCCC(=O)O (relative stereo) ; wanted: its pIC50
5.49

----------
# Target desc: Human DNA polymerase κ (Homo sapiens, UniProt Q9UBT6)
# Construct: A truncated form of pol κ (i.e., hDINB1DC); 6xHis (C)
# Sequence (Q9UBT6 1-560 limits assumed): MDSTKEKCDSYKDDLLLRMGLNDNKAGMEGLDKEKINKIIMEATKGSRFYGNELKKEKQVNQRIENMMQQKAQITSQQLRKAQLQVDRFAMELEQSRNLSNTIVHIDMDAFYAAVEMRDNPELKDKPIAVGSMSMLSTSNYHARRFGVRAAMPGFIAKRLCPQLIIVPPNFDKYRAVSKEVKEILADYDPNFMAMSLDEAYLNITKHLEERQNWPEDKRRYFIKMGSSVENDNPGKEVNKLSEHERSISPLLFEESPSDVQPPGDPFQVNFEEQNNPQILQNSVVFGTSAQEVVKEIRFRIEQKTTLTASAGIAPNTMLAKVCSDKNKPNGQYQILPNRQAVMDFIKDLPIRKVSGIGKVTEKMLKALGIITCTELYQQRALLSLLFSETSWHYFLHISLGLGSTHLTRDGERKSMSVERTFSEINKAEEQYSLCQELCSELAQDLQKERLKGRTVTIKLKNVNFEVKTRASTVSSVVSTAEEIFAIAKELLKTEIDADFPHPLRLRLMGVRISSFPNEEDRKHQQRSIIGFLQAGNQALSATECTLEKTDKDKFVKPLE
# Protocol: DNA polymerase assay, human pol κ
Assay readout: pIC50
Would you please state pIC50, meaning minus log10 of the concentration in mol/L, as a bare number?

Need pIC50 of CC1=CC[C@H]2C(C)(C)CCC[C@]2(C)[C@H]1CCCCCCCCCCCCCCCCC(=O)O (relative stereo) [compound 11] , thanks.
5.14

----------
# Target desc: Human DNA polymerase λ (Homo sapiens, UniProt Q9UGP5)
# Sequence (Q9UGP5 whole entry): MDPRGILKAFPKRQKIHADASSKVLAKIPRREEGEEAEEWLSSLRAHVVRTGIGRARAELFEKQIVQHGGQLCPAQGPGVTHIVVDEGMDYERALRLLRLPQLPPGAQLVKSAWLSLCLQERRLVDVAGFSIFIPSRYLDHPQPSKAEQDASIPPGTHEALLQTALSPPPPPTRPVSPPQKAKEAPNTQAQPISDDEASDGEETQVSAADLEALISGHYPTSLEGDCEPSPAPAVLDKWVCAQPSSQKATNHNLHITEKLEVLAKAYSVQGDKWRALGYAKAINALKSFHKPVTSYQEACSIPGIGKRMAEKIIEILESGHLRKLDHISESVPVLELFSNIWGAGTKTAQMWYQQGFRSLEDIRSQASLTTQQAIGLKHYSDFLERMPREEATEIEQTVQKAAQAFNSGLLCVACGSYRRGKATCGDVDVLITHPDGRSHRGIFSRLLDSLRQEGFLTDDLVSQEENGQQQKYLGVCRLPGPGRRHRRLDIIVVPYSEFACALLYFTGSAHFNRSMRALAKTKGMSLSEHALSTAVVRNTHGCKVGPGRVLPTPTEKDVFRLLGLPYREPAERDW
Assay readout: pIC50
Remember the convention: pIC50 equals -log10 of concentration in molar.

Param readout= pIC50; system= Human DNA polymerase λ (Homo sapiens, UniProt Q9UGP5); entry= CC1=CC[C@H]2C(C)(C)CCC[C@]2(C)[C@H]1CCCCCCCCCCCCCCCCC(=O)O (relative stereo) ; returns value.
5.33

----------
# Target desc: Rat DNA polymerase β (Rattus norvegicus)
# Construct: made in house; host or cells: E. coli JMpβ5
# Protocol: DNA polymerase assay, rat pol β
# Type: biochemical
# Measurement conditions: DNA template-primer poly(dA)/oligo(dT)12-18, Dixon plot
Assay readout: pKi
Hey, just a heads up that pKi is the negative log base 10 of the concentration in molar.

Please give the measured pKi for this molecule: CC1=CC[C@H]2C(C)(C)CCC[C@]2(C)[C@H]1CCCCCCCCCCCCCCCCC(=O)O (relative stereo)
5.71

----------
# Target desc: E. coli DNA polymerase I (Klenow fragment) (Escherichia coli)
# Sequence (P00582 324-928): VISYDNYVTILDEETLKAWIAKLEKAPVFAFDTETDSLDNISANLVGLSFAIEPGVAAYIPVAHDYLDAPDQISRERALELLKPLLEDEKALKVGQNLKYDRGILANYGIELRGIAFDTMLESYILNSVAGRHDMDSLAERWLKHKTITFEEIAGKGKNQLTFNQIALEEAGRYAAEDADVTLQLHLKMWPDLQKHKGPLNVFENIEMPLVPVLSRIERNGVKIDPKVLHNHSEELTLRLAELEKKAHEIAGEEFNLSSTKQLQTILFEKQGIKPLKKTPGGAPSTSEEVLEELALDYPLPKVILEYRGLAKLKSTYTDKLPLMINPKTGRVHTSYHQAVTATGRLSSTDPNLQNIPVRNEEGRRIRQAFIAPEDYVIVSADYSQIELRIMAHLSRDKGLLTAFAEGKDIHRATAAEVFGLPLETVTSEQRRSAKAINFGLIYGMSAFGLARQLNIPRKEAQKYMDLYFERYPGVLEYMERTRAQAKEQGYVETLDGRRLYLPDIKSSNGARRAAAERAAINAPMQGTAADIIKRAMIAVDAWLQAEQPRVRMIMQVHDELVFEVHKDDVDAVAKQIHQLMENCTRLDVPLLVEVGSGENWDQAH
pIC50: −log10 of the molar value.
Assay readout: pIC50

Entry under review: CC1=CC[C@H]2C(C)(C)CCC[C@]2(C)[C@H]1CCCCCCCCCCCCCCCCC(=O)O (relative stereo) . Reported pIC50?
< 3.70

----------
# Target desc: Human DNA polymerase ι (Homo sapiens)
# Sequence (Q9UNA4 1-740): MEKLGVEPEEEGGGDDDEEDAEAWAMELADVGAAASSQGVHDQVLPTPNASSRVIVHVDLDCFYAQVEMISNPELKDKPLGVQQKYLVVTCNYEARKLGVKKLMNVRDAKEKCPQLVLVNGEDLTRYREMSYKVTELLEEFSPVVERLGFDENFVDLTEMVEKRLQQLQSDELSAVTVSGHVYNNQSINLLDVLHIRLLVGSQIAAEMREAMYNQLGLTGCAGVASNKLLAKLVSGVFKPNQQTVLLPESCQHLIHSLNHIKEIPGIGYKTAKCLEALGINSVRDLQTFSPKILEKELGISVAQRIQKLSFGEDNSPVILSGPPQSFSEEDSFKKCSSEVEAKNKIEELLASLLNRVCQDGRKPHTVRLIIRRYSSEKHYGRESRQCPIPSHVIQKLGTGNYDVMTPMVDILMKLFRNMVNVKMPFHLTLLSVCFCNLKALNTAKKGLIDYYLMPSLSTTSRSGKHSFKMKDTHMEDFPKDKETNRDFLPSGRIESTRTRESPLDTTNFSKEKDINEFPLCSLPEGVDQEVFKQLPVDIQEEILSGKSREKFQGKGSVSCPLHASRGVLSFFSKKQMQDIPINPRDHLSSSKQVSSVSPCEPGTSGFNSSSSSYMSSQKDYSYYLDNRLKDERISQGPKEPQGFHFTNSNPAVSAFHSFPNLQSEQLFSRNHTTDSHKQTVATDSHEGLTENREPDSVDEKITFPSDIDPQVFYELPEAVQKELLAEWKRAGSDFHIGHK
Assay readout: IC50 (µM)
Report as a plain number; the unit µM is understood.

# get_value(readout='IC50', item= CC1=CC[C@H]2C(C)(C)CCC[C@]2(C)[C@H]1CCCCCCCCCCCCCCCCC(=O)O (relative stereo) [compound 11] )
7.84

----------
# Target desc: Human DNA polymerase δ (Homo sapiens, UniProt P28340)
# Construct: Human pols δ and ε were purified by the nuclear fractionation of human peripheral blood cancer cells (Molt-4); endogenous in cells
# Sequence (P28340 1-1107): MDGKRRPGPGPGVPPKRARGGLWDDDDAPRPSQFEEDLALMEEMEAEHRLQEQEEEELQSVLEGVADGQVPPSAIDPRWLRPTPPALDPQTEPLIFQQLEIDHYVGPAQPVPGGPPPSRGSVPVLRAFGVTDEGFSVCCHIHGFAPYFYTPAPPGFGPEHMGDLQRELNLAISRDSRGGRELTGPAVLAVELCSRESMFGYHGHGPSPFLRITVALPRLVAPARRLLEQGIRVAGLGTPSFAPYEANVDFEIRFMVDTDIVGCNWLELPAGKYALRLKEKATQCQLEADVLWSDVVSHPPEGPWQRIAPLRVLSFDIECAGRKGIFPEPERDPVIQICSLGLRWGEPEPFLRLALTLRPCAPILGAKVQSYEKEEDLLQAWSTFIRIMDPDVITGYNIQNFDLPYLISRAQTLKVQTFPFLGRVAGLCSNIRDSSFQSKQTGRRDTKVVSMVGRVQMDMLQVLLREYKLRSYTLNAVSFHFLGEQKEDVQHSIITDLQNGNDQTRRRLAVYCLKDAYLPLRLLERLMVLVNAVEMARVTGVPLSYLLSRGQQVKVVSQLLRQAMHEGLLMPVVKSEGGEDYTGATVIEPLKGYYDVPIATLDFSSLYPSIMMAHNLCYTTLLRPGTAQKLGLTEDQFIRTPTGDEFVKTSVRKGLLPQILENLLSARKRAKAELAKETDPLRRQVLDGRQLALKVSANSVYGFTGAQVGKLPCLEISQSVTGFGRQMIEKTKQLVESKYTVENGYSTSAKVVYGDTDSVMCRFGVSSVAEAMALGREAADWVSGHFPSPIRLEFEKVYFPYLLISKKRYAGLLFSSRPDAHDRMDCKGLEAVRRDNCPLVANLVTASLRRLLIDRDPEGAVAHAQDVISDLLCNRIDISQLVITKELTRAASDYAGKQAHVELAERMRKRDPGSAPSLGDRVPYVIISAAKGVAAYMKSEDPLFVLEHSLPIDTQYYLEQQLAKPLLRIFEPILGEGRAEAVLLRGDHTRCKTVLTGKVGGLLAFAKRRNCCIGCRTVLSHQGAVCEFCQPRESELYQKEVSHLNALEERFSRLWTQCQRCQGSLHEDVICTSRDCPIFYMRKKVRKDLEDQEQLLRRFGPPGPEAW
# Protocol: DNA polymerase assay, human pol δ
Assay readout: IC50 (µM)
Only the number, expressed in µM, is required.

Give the measured IC50 of CC1=CC[C@H]2C(C)(C)CCC[C@]2(C)[C@H]1CCCCCCCCCCCCCCCCC(=O)O (relative stereo) .
4.89

----------
# Target desc: Rat DNA polymerase β (Rattus norvegicus, UniProt P06766)
# Construct: made in house; host or cells: E. coli JMpβ5
# Protocol: DNA polymerase assay, rat pol β
# Format: biochemical
# Measurement conditions: poly(dA)/oligo(dT)12-18 and dTTP, 0.05 units enzyme
Assay readout: pIC50
By convention, pIC50 is the negative base-10 log of a molar concentration.

Need pIC50 of CC1=CC[C@H]2C(C)(C)CCC[C@]2(C)[C@H]1CCCCCCCCCCCCCCCCC(=O)O (relative stereo) , thanks.
5.26

----------
# Target desc: Rat DNA polymerase β (Rattus norvegicus)
# Construct: made in house; host or cells: E. coli JMpβ5
# Protocol: DNA polymerase assay, rat pol β
# Format: biochemical
# Measurement conditions: nucleotide substrate dTTP, Dixon plot
# From the text: Pol α was purified from calf thymus by immuno-affinity column chromatography as described by Tamai et al.. Recombinant rat pol β was purified from E. coli JMpβ5 as described by Date et al.. The human pol γ catalytic gene was cloned into pFastBac. Histidine-tagged enzyme was expressed using the BAC-TO-BAC HT Baculovirus Expression System according to the supplier's manual (LIFE TECHNOLOGIES, MD, USA) and purified using ProBoundresin (Invitrogen Japan, Tokyo, Japan). […]
Assay readout: Ki

State the recorded Ki for this entry: CC1=CC[C@H]2C(C)(C)CCC[C@]2(C)[C@H]1CCCCCCCCCCCCCCCCC(=O)O (relative stereo)
2.36 µM
